Here the recorded pIC50 is given for each entry.
- experimental system: human PAD4 (Homo sapiens)
- Construct: human PAD4 (NM_012387), A2-P663, was PCR amplified; His-SUMO (N, cleaved yes)
- Sequence (Q9UM07 2-663): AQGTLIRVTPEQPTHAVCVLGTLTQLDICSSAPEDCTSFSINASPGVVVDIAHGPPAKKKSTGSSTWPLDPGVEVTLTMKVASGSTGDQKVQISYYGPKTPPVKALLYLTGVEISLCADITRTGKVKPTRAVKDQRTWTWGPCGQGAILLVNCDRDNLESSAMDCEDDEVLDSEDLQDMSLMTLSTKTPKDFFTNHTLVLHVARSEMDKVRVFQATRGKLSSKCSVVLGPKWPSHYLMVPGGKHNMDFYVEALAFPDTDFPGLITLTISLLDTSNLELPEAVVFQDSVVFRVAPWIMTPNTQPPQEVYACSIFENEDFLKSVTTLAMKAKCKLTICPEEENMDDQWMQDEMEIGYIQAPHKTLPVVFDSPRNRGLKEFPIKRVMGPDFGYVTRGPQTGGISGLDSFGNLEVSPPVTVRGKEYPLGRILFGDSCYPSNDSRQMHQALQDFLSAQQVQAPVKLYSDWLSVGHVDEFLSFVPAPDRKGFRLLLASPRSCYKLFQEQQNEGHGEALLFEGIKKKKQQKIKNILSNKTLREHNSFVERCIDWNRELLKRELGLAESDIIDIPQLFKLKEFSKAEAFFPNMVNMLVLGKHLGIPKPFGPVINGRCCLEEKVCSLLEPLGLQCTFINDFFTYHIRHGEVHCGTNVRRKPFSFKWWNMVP
- assay remarks: In vitro PAD4 BAEE biochemical assay
- stated conditions: BAEE substrate 3 mM, 5 nM PAD4, 2 mM calcium chloride; geometric mean of multiple experiments
The value called pIC50 is obtained by taking minus log10 of the concentration in mol/L.

Query :: Supply recorded pIC50 for COc1cc(C(=O)N2CC[C@@H](OC)[C@@H](N)C2)cc2nc(-c3cc4ccc5nc4n3CCCCCCC(C)(C)C(=O)N[C@@H]5C)n(C)c12 here.
Result :: 6.93

Query :: Note down pIC50 recorded for C[C@H]1NC(=O)c2ccc(Cl)nc2CC[C@@H]2C[C@@H]2Cn2c(-c3nc4cc(C(=O)N5C[C@H](N)[C@@H]6CC[C@H]5C6)cc(F)c4n3C3CC3)cc3ccc1nc32
Result :: 7.60

Query :: Hello, please tell me recorded pIC50 for this one: COc1cc(C(=O)N2C[C@H](N)[C@@H]3CC[C@H]2C3)cc2nc(-c3cc4ccc5nc4n3CCCCCc3nc(Cl)ccc3C(=O)N[C@@H]5C)c(C)n12
Result :: 7.59

Continuing:
Query :: Return value of pIC50 for input COc1cc(C(=O)N2CCC[C@@H](N)C2)cc2nc(-c3cc4ccc5nc4n3C[C@H]3C[C@H]3CCCCC(=O)N[C@@H]5C)n(C)c12 , no commentary.
Result :: 7.39

Query :: State its pIC50 for this compound: COc1cc(C(=O)N2[C@H]3CC[C@@H]2[C@H](N)C3)cc2nc(-c3cc4ccc5nc4n3CCC/C=C/c3ccccc3C(=O)N[C@@H]5C)n(C)c12
Result :: 7.25

Query :: Return reported pIC50. Input compound: COc1cc(C(=O)N2[C@H]3CC[C@@H]2[C@H](N)C3)cc2nc(-c3cc4ccc5nc4n3CC(C)(C)CCCCCC(=O)N[C@@H]5C)n(C)c12
Result :: 7.17

Sourced from patent US11976083B2
